Data origin: ChEMBL document CHEMBL1938337

# assayed_target: CYP3A4 (Homo sapiens)
# protocol_text: Inhibition of CYP3A4 at 3 uM
# Type: ADME
test_readout: inhibition at 3 µM (%)
Only the number, expressed in %, is required.

Given the molecule CC(C)n1cc(C(=O)c2cncc(N[C@@H]3CNC[C@@H]3c3ccc(F)cc3)n2)c2c(N)ncnc21 , what is its reported inhibition at 3 µM? 27

###

# assayed_target: 3-phosphoinositide-dependent protein kinase 1 (Homo sapiens, UniProt O15530)
# protocol_text: Inhibition of PDK1-mediated AKT1 phosphorylation at T308 in human H460 cells after 2 hrs by ELISA
# Type: cell-based
Kindly supply the reported pIC50 values for the records listed here.
Scale for pIC50: -log10 of concentration given in mol/L; no unit attached.

Given the compound CC(C)n1cc(C(=O)c2cncc(N[C@@H]3CCN(C=O)[C@@H]3c3ccc(F)cc3)n2)c2c(N)ncnc21 , what is its reported pIC50? 6.92

Next entry: CC(=O)N1CC[C@@H](Nc2cncc(C(=O)c3cn(C(C)C)c4ncnc(N)c34)n2)[C@H]1c1ccccc1 6.49

Next entry: CC(=O)N1CC[C@@H](Nc2cncc(C(=O)c3cn(C(C)C)c4ncnc(N)c34)n2)[C@H]1c1ccc(F)cc1 6.80

###

# Tested on: CYP3A4 (Homo sapiens)
# protocol_text: Inhibition of CYP3A4 at 3 uM
test_readout: inhibition at 3 µM (%)
Only the number, expressed in %, is required.

Given the compound CC(C)n1cc(C(=O)c2cncc(N[C@@H]3CNC[C@@H]3c3ccc(F)cc3)n2)c2c(N)ncnc21 , what is its reported inhibition at 3 µM? 27

###

# protocol_text: Solubility of the compound at pH 6.5
# Format: physicochemical
# test_conditions: buffer
test_readout: solubility (µM)
Only the number, expressed in µM, is required.

Given the compound CC(C)n1cc(C(=O)c2cncc(N[C@@H]3CCO[C@@H]3c3ccc(F)cc3)n2)c2c(N)ncnc21 , what is its reported solubility? 120

Next entry: CC(C)n1cc(C(=O)c2cncc(N[C@@H]3CNC[C@@H]3c3ccc(F)cc3)n2)c2c(N)ncnc21 480

Next entry: CC(=O)N1CC[C@@H](Nc2cncc(C(=O)c3cn(C(C)C)c4ncnc(N)c34)n2)[C@H]1c1ccc(F)cc1 390

Next entry: CC(C)n1cc(C(=O)c2cncc(N[C@@H]3COC[C@@H]3c3ccc(F)cc3)n2)c2c(N)ncnc21 23

Next entry: CC(C)n1cc(C(=O)c2cncc(N[C@@H]3CCN(C=O)[C@@H]3c3ccc(F)cc3)n2)c2c(N)ncnc21 290

Next entry: CC(C)n1cc(C(=O)c2cncc(N[C@@H]3CCC[C@@H]3c3ccc(F)cc3)n2)c2c(N)ncnc21 6

Next entry: CC(C)n1cc(C(=O)c2cncc(N[C@@H]3CCN[C@@H]3c3ccc(F)cc3)n2)c2c(N)ncnc21 520

Next entry: CC(=O)N1CC[C@@H](Nc2cncc(C(=O)c3cn(C(C)C)c4ncnc(N)c34)n2)[C@H]1c1ccccc1 510

###

# assayed_target: 3-phosphoinositide-dependent protein kinase 1 (Homo sapiens, UniProt O15530)
# Sequence (O15530 whole entry): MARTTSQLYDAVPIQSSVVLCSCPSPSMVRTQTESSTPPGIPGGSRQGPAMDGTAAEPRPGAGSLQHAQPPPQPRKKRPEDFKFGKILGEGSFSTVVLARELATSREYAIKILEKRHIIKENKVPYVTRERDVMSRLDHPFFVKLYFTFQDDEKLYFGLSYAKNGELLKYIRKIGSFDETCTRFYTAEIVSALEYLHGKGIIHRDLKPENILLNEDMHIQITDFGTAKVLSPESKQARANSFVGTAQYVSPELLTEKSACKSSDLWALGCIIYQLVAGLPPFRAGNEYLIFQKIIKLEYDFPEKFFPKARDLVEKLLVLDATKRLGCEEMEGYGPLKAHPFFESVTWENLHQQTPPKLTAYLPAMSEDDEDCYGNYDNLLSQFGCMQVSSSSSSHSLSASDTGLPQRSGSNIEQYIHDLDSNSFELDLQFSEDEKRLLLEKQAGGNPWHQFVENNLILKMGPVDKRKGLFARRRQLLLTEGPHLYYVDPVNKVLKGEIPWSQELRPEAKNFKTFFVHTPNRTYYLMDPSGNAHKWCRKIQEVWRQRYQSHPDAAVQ
# protocol_text: Inhibition of recombinant human His-tagged PDK1 catalytic domain using Ac-Sox-PKTFCGTPEYLAPEVRREPRILSEEEQEMFRDFDYIAD-NH2 as substrate by fluorescence-based spectrophotometry
Kindly supply the reported log10 Ki values for the records listed here.
The common logarithm of Ki in nM is what is listed.

Given the compound CC(C)n1cc(C(=O)c2cncc(N[C@@H]3CCO[C@@H]3c3ccc(F)cc3)n2)c2c(N)ncnc21 , what is its reported log10 Ki? 0.11

Next entry: CC(C)n1cc(C(=O)c2cncc(N[C@@H]3CCN(C=O)[C@@H]3c3ccc(F)cc3)n2)c2c(N)ncnc21 -0.15

Next entry: CC(C)n1cc(C(=O)c2cncc(N[C@@H]3CCN[C@@H]3c3ccc(F)cc3)n2)c2c(N)ncnc21 0.00

Next entry: CC(C)n1cc(C(=O)c2cncc(N[C@@H]3CCC[C@@H]3c3ccc(F)cc3)n2)c2c(N)ncnc21 -0.22

Next entry: CC(C)n1cc(C(=O)c2cncc(N(C)[C@@H]3CCC[C@@H]3c3ccc(F)cc3)n2)c2c(N)ncnc21 -0.05

Next entry: CC(=O)N1CC[C@@H](Nc2cncc(C(=O)c3cn(C(C)C)c4ncnc(N)c34)n2)[C@H]1c1ccccc1 0.15

Next entry: CC(C)n1cc(C(=O)c2cncc(N[C@@H]3CCC[C@@H]3c3ccccc3)n2)c2c(N)ncnc21 0.30

Next entry: CNc1cncc(C(=O)c2cn(C(C)C)c3ncnc(N)c23)n1 2.00

Next entry: CC(C)n1cc(C(=O)c2cncc(N[C@@H]3CNC[C@@H]3c3ccc(F)cc3)n2)c2c(N)ncnc21 0.40

Next entry: CC(=O)N1CC[C@@H](Nc2cncc(C(=O)c3cn(C(C)C)c4ncnc(N)c34)n2)[C@H]1c1ccc(F)cc1 0.15

###

# assayed_target: Phosphatidylinositol 4,5-bisphosphate 3-kinase catalytic subunit alpha isoform (Mus musculus, UniProt P42337)
# Sequence (P42337 whole entry, canonical isoform): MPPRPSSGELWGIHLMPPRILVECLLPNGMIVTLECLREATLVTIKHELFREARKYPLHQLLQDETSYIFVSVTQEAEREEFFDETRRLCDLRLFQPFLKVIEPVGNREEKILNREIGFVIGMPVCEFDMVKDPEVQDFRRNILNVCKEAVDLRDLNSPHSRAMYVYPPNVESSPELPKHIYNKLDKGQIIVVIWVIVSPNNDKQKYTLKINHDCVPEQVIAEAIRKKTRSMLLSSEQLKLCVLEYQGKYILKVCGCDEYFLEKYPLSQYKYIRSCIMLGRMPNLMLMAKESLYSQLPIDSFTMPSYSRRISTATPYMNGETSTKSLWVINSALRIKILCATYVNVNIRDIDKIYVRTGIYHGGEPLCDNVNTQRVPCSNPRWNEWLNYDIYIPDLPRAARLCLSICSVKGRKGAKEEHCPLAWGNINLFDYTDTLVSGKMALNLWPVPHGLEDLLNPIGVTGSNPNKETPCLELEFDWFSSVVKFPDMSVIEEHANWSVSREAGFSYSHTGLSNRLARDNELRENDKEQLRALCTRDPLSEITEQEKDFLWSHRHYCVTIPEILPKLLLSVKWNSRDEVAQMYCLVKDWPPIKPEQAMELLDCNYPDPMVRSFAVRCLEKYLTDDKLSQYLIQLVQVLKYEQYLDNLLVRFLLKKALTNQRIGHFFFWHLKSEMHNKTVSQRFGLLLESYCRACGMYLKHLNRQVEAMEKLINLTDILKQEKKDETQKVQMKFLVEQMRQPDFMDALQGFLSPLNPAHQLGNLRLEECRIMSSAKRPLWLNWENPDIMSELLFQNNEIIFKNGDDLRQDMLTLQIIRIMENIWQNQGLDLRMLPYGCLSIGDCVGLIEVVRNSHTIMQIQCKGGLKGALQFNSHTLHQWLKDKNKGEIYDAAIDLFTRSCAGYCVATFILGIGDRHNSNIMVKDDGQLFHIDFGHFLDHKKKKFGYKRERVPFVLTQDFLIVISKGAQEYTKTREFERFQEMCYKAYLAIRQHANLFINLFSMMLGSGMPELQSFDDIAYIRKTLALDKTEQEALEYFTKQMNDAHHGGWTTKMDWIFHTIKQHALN
# protocol_text: Inhibition of mouse PI3Kalpha after 30 mins by fluorescence polarization assay
test_readout: pKi
Scale for pKi: -log10 of concentration given in mol/L; no unit attached.

Given the molecule CC(C)n1cc(C(=O)c2cncc(N[C@@H]3CCN(C=O)[C@@H]3c3ccc(F)cc3)n2)c2c(N)ncnc21 , what is its reported pKi? 6.89

Next entry: CC(=O)N1CC[C@@H](Nc2cncc(C(=O)c3cn(C(C)C)c4ncnc(N)c34)n2)[C@H]1c1ccc(F)cc1 5.89

Next entry: CC(C)n1cc(C(=O)c2cncc(N(C)[C@@H]3CCC[C@@H]3c3ccc(F)cc3)n2)c2c(N)ncnc21 6.19

Next entry: CC(C)n1cc(C(=O)c2cncc(NCCc3cccnc3)n2)c2c(N)ncnc21 6.60

Next entry: CC(=O)N1CC[C@@H](Nc2cncc(C(=O)c3cn(C(C)C)c4ncnc(N)c34)n2)[C@H]1c1ccccc1 5.72

Next entry: CC(C)n1cc(C(=O)c2cncc(N[C@@H]3COC[C@@H]3c3ccc(F)cc3)n2)c2c(N)ncnc21 6.24

Next entry: CC(C)n1cc(C(=O)c2cncc(N[C@@H]3CCC[C@@H]3c3ccc(F)cc3)n2)c2c(N)ncnc21 6.49

Next entry: CC(C)n1cc(C(=O)c2cncc(N[C@@H]3CCO[C@@H]3c3ccc(F)cc3)n2)c2c(N)ncnc21 6.37

Next entry: CC(C)n1cc(C(=O)c2cncc(N[C@@H]3CNC[C@@H]3c3ccc(F)cc3)n2)c2c(N)ncnc21 6.43

Next entry: CC(C)n1cc(C(=O)c2cncc(N[C@@H]3CCN[C@@H]3c3ccc(F)cc3)n2)c2c(N)ncnc21 6.82

Next entry: CC(C)n1cc(C(=O)c2cncc(N[C@@H]3CCC[C@@H]3c3ccccc3)n2)c2c(N)ncnc21 6.89

###

Kindly supply the reported pIC50 values for the records listed here.
# assayed_target: 3-phosphoinositide-dependent protein kinase 1 (Homo sapiens, UniProt O15530)
# protocol_text: Inhibition of PDK1-mediated AKT1 phosphorylation at T308 in human A549 cells after 2 hrs by ELISA
# Type: cell-based
Scale for pIC50: -log10 of concentration given in mol/L; no unit attached.

Given the compound CC(C)n1cc(C(=O)c2cncc(N[C@@H]3CCN(C=O)[C@@H]3c3ccc(F)cc3)n2)c2c(N)ncnc21 , what is its reported pIC50? 7.30

Next entry: CC(=O)N1CC[C@@H](Nc2cncc(C(=O)c3cn(C(C)C)c4ncnc(N)c34)n2)[C@H]1c1ccccc1 6.52

Next entry: CC(=O)N1CC[C@@H](Nc2cncc(C(=O)c3cn(C(C)C)c4ncnc(N)c34)n2)[C@H]1c1ccc(F)cc1 7.10

###

pKi tested on RAC-alpha serine/threonine-protein kinase (Homo sapiens): recorded values
Sequence (P31749 whole entry): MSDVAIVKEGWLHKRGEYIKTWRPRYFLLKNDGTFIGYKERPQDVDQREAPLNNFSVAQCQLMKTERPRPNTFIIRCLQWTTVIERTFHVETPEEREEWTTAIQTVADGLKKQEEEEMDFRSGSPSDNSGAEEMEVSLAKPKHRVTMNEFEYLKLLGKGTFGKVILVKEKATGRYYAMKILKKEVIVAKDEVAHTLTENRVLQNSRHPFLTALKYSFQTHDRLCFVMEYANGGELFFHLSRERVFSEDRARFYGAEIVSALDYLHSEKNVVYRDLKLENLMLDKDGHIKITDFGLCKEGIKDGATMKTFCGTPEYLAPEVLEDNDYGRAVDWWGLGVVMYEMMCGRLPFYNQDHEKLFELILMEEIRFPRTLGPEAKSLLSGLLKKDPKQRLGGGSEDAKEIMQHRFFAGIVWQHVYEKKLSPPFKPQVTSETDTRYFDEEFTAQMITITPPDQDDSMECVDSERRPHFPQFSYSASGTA
Scale for pKi: -log10 of concentration given in mol/L; no unit attached.

Given the compound CC(C)n1cc(C(=O)c2cncc(N[C@@H]3COC[C@@H]3c3ccc(F)cc3)n2)c2c(N)ncnc21 , what is its reported pKi? 6.59

Next entry: CC(C)n1cc(C(=O)c2cncc(N[C@@H]3CCN(C=O)[C@@H]3c3ccc(F)cc3)n2)c2c(N)ncnc21 6.77

Next entry: CC(C)n1cc(C(=O)c2cncc(N[C@@H]3CCO[C@@H]3c3ccc(F)cc3)n2)c2c(N)ncnc21 6.64

Next entry: CC(C)n1cc(C(=O)c2cncc(N[C@@H]3CCC[C@@H]3c3ccc(F)cc3)n2)c2c(N)ncnc21 6.68

Next entry: CC(=O)N1CC[C@@H](Nc2cncc(C(=O)c3cn(C(C)C)c4ncnc(N)c34)n2)[C@H]1c1ccccc1 5.96

Next entry: CC(C)n1cc(C(=O)c2cncc(N[C@@H]3CCN[C@@H]3c3ccc(F)cc3)n2)c2c(N)ncnc21 7.00

Next entry: CC(=O)N1CC[C@@H](Nc2cncc(C(=O)c3cn(C(C)C)c4ncnc(N)c34)n2)[C@H]1c1ccc(F)cc1 6.44

Next entry: CC(C)n1cc(C(=O)c2cncc(N[C@@H]3CNC[C@@H]3c3ccc(F)cc3)n2)c2c(N)ncnc21 8.00
